Data origin: patent EP1144368B1

- tgt: UniProt:P78536
- assay_remarks: TACE inhibition (fluorescent peptidyl substrate)
- Assay type: biochemical
- condition_summary: Table 15: In Vitro Inhibition of TACE
pIC50: −log10 of the molar value.
metric_name: pIC50

1. CC#CCOc1ccc(S(=O)(=O)N[C@H](CC(C)C)C(=O)NO)cc1    8.24

P. CC#CCOc1ccc(S(=O)(=O)N[C@@H](CSC(C)(C)C)C(=O)NO)cc1
Q. CC#CCOc1ccc(S(=O)(=O)N[C@H](Cc2ccc(F)c(F)c2)C(=O)NO)cc1
-- ask Compare pIC50: is it lower for P or for Q ? Respond with the label that goes with your answer.
-- reply P

----------
- tgt: TACE (Homo sapiens)
- Sequence (P78536 215-824): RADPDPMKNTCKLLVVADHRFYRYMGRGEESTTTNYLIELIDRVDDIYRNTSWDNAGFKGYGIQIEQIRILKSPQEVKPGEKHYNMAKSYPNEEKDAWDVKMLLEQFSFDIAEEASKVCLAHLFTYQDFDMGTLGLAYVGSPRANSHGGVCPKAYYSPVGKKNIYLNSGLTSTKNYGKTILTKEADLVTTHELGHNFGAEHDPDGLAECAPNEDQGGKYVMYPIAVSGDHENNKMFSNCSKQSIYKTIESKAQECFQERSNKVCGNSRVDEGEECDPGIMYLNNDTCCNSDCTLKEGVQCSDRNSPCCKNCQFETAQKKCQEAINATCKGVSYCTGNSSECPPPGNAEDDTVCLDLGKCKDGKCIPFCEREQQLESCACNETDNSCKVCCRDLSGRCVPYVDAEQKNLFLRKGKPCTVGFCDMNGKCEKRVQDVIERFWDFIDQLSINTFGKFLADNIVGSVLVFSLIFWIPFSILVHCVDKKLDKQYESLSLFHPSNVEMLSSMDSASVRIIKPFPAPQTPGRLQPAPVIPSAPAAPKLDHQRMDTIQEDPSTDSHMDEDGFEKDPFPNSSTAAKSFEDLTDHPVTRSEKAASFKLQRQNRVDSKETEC
- assay_remarks: TACE inhibition (fluorescent peptidyl substrate)
- Format: biochemical
- condition_summary: In Vitro Inhibition of TACE, 1 uM; read-out: % Inhibition at 1 uM
metric_name: inhibition at 1 µM (%)

Some compounds with known inhibition at 1 µM results, for comparison:
1. CC#CCOc1ccc(S(=O)(=O)N[C@@H](Cc2ccc(O)cc2)C(=O)NO)cc1    27.3
2. CC#CCOc1ccc(S(=O)(=O)N[C@H](Cc2c[nH]c3ccccc23)C(=O)NO)cc1    105
3. CC#CCOc1ccc(S(=O)(=O)N[C@H](Cc2ccccc2)C(=O)NO)cc1    106
4. CC#CCOc1ccc(S(=O)(=O)N[C@H](CC(=O)O)C(=O)NO)cc1    40
5. CC#CCOc1ccc(S(=O)(=O)N[C@H](CC(C)C)C(=O)NO)cc1    107
6. CC#CCOc1ccc(S(=O)(=O)N[C@H](Cc2ccc(O)cc2)C(=O)NO)cc1    101
7. CC#CCOc1ccc(S(=O)(=O)N[C@@H](CC(C)C)C(=O)NO)cc1    58.9
8. CC#CCOc1ccc(S(=O)(=O)N[C@H](C(=O)NO)[C@@H](C)OCc2ccccc2)cc1    28.5
9. CC#CCOc1ccc(S(=O)(=O)N[C@@H](CO)C(=O)NO)cc1    2.5
10. CC#CCOc1ccc(S(=O)(=O)N[C@@H](CC(=O)OC2CCCCC2)C(=O)NO)cc1    70.4

P. CC#CCOc1ccc(S(=O)(=O)N[C@@H](Cc2ccccc2)C(=O)NO)cc1
Q. CC#CCOc1ccc(S(=O)(=O)N[C@@H](CCCNC(N)=NS(=O)(=O)c2ccc(C)cc2)C(=O)NO)cc1
R. CC#CCOc1ccc(S(=O)(=O)N2C[C@H](OCc3ccccc3)C[C@H]2C(=O)NO)cc1
-- ask # desc sort on inhibition at 1 µM across 3 compounds List the labels, following the order given in the request.
-- reply Q, P, R

I. CC#CCOc1ccc(S(=O)(=O)N[C@@H](Cc2c[nH]c3ccccc23)C(=O)NO)cc1
II. CC#CCOc1ccc(S(=O)(=O)N[C@@H](CC)C(=O)NO)cc1
III. CC#CCOc1ccc(S(=O)(=O)N[C@@H](CC2CCCCC2)C(=O)NO)cc1
-- ask rank_up(items): orders items by reported inhibition at 1 µM in ascending numerical order. Respond with the label ranking, as requested.
-- reply I, II, III

A. CC#CCOc1ccc(S(=O)(=O)N[C@@H](CSC(C)(C)C)C(=O)NO)cc1
B. CC#CCOc1ccc(S(=O)(=O)N[C@@H](CC(N)=O)C(=O)NO)cc1
-- ask Looking at A and B , which one comes out lower in inhibition at 1 µM terms? Answer format: the label of the selected item.
-- reply B
